Where do these numbers come from? They come from paper PMC7057948.

biological target: NahR (Cupriavidus necator, UniProt G0EUZ9); construct: native full-length gene, divergent to operon starting at H16_RS08125; reporter plasmid pEH042 (plasmid assigned by list order); not the P. putida NahR; experiment: RFP reporter dose-response in C. necator H16, Hill fit; conditions: read-out: Km^b
EXPERIMENTAL_ENDPOINT: EC50 (nM)
// units = nM; emit number, no label

Problem: Provide the documented EC50 with NahR (Cupriavidus necator, UniProt G0EUZ9) as the system for O=C(O)c1ccccc1O [compound 5, Salicylate]
Solution: 2120

----------
Target: BenM (Cupriavidus necator, UniProt Q0KAA5)
Construct: native full-length gene, divergent to operon starting at H16_RS09790; reporter plasmid pEH148 (plasmid assigned by list order)
Sequence (Q0KAA5 1-305): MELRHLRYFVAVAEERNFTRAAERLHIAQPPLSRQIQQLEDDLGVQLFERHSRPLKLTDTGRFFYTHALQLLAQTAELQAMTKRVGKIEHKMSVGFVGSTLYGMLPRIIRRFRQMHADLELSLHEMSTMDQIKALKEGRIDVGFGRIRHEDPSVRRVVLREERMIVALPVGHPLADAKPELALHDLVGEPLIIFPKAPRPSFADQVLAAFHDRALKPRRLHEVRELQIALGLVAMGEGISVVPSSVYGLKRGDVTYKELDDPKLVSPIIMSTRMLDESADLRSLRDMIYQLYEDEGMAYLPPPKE
Experiment: RFP reporter dose-response in C. necator H16, Hill fit
Conditions: read-out: Km^b
EXPERIMENTAL_ENDPOINT: EC50 (µM)
Answer format: numeric, µM implied, no suffix.

Problem: Dear colleague, I am looking for the recorded EC50 of the following compound: O=C(O)c1ccccc1 [compound 6, Benzoate]
Solution: 12.6
